From: patent US20210171576A1

- measured_target: human mitochondrial CIpP (HsCIpP) (Homo sapiens)
- Construct: made in house; host or cells: E. coli SG1146 (BL21(DE3) ΔclpP::cat)
- Sequence (Q16740 57-277): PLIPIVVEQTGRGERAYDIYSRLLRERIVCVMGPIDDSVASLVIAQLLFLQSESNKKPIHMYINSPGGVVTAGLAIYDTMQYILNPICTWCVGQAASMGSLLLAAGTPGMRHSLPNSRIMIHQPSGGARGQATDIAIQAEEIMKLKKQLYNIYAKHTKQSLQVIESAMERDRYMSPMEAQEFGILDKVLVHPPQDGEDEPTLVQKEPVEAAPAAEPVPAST
- test_protocol: Screen of ADEP analogs against HsCIpP: relative degradation (RD) index, casein-FITC degradation relative to E. coli CIpAP
- Type: biochemical
- Set-up: key: casein-FITC degradation by HsClpP relative to EcClpAP
- condition_summary: RD value at 25 μM of the ADEP analog; measure of ability to activate HsCIpP
Where a SMILES comes first, the peptide text is derived from it. Bridges are numbered along the chain shown (N, C = ends). [ ]: non-standard residue; d: D form. The star is where a group is joined. Phe(3,5-F2) = N[C@@H](Cc1cc(F)cc(F)c1)C(=O)O; Pip(4S-Me) = C[C@H]1CCN[C@H](C(=O)O)C1; Pro(4R-Me) = C[C@H]1CN[C@H](C(=O)O)C1; Bta = N[C@@H](Cc1csc2ccccc12)C(=O)O; X12 = O=C(/C=C/c1cccc(C(F)(F)F)c1)*; Heptenoyl(2E) = CCCC/C=C/C(=O)*; aThr = C[C@H](O)[C@H](N)C(=O)O; Pip = O=C(O)[C@@H]1CCCCN1; X3 = O=C(/C=C/CC1CC1)*
metric: Hs RD25
Keep the answer to the number alone.

Solved entries (count: 2):
molecule	measured_number
C[C@@H]1C[C@H]2C(=O)O[C@@H](C)[C@H](NC(=O)[C@H](Cc3cc(F)cc(F)c3)NC(=O)/C=C/c3cccc(C(F)(F)F)c3)C(=O)N3CCC[C@H]3C(=O)N3CC[C@H](C)C[C@H]3C(=O)N[C@@H](C)C(=O)N2C1 [ADEP-39] (X12-[Phe(3,5-F2)][aThr]P[Pip(4S-Me)]A[Pro(4R-Me)]; ester 2-C)	0.78
C[C@@H]1C[C@H]2C(=O)O[C@@H](C)[C@H](NC(=O)[C@H](Cc3cc(F)cc(F)c3)NC(=O)/C=C/CC3CC3)C(=O)N3CCC[C@H]3C(=O)N3CCCC[C@H]3C(=O)N[C@@H](C)C(=O)N2C1 [ADEP-13] (X3-[Phe(3,5-F2)][aThr]P[Pip]A[Pro(4R-Me)]; ester 2-C)	1.02

Turning to the following molecule.
In: Fill in: Hs RD25 of CCCC/C=C/C(=O)N[C@@H](Cc1csc2ccccc12)C(=O)N[C@H]1COC(=O)[C@@H]2C[C@@H](C)CN2C(=O)[C@H](C)NC(=O)[C@@H]2CCCCN2C(=O)[C@@H]2CCCN2C1=O [ADEP-42] ({Heptenoyl(2E)}-[Bta]SP[Pip]A[Pro(4R-Me)]; ester 2-C) is ___
Out: 0.87
